Origin of values: patent US20240117334A1

Biological target: alpha-2-marcroglobin (A2M) (UniProt P01023)
Sequence (P01023 24-1474): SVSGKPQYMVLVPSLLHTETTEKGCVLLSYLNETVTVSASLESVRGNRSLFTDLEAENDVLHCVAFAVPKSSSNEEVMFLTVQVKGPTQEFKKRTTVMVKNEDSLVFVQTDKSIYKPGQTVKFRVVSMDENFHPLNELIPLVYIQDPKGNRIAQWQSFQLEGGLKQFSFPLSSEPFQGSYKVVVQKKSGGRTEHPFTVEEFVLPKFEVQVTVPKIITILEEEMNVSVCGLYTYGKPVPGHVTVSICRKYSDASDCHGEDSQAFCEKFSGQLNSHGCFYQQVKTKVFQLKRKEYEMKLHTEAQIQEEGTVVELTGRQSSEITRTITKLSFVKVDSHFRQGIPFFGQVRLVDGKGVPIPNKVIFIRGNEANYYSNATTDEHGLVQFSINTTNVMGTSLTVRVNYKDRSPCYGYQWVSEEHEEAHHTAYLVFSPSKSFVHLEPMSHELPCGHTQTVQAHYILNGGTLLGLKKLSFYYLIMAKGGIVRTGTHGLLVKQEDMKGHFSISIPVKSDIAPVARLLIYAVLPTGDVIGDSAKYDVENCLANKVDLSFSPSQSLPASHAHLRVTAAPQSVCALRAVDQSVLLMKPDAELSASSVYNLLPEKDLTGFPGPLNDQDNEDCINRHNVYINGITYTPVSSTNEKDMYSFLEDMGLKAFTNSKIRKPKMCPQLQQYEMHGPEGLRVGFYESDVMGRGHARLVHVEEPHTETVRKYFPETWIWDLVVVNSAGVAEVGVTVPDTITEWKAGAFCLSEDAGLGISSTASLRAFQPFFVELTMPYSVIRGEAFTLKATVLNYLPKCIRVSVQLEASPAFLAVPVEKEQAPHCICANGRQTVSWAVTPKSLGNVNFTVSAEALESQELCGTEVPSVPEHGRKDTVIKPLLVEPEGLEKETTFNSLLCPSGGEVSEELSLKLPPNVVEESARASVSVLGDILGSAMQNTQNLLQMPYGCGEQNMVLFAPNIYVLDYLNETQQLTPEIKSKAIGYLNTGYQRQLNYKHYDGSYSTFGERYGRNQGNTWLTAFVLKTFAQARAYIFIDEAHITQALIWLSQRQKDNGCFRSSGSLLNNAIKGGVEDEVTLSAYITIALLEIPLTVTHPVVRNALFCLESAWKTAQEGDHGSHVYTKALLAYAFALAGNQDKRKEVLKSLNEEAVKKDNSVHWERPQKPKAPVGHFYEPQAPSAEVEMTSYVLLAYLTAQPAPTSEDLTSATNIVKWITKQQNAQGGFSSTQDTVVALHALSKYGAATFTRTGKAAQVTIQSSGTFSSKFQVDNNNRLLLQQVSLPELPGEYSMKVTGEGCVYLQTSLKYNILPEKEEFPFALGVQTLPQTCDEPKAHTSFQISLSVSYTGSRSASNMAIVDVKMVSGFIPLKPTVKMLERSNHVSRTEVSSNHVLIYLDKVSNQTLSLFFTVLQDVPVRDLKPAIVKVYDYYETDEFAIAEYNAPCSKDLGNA
Assay: inhibition of the protease by the plasma inhibitor
readout_kind: kapp (M⁻¹ s⁻¹)
Kindly provide the numeric value in M⁻¹ s⁻¹ only, without the unit symbol.

Read off the recorded kapp for chymase C22S/F41V/L99W/G151L/F173K/R217S/A226R (enzyme) IIGGTESKPHSRPYMAYLEIVTSNGPSKVCGGFLIRRNFVLTAAHCAGRSITVTLGAHNITEEEDTWQKLEVIKQFRHPKYNTSTWHHDIMLLKLKEKASLTLAVGTLPFPSQFNFVPPGRMCRVAGWGRTGVLKPLSDTLQEVKLRLMDPQACSHKRDFDHNLQLCVGNPRKTKSAFKGDSGGPLLCAGVAQGIVSYGSSDAKPPRVFTRISHYRPWINQILQAN
329
